Data provenance: patent US20210246204A1

# Lookup of reported log10 Kd keyed by entry
molecular target: T1, histidine-tagged human Siglec-7 (NovoProtein) (human, UniProt Q9Y286 19-353); experiment: BLI, antibody captured
T1 construct: Bought protein; also called recombinant human Siglec-7; recombinant Siglec-7; not shown: histidine tag
T1 sequence (Q9Y286 19-353 limits assumed): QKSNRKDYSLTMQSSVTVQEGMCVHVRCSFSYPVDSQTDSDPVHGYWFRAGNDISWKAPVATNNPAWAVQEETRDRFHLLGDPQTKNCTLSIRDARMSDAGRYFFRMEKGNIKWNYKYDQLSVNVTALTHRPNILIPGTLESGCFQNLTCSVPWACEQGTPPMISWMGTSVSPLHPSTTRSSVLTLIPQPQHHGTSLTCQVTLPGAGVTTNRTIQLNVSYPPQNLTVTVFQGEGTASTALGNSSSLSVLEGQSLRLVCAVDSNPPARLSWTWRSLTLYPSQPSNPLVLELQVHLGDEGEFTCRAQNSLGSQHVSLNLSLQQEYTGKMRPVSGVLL
Form field - Quantity: Kd; Unit: nM; Scale: log10

Please review the following examples before continuing.
S7AB-H8.19 (antibody, V domains shown) VH: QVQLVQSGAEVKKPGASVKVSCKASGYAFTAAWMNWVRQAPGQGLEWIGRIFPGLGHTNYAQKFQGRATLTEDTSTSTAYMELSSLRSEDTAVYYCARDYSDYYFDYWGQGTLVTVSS VL: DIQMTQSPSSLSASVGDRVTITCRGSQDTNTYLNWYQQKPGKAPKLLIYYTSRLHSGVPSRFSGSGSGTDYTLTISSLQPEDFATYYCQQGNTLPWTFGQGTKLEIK    -0.05
S7AB-H8.44 (antibody, V domains shown) VH: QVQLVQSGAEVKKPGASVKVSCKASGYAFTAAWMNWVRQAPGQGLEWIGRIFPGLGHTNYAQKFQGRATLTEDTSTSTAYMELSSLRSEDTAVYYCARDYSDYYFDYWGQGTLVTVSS VL: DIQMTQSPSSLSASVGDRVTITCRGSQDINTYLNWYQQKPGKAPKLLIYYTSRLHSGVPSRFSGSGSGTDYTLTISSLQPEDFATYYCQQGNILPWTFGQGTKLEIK    -0.70
S7AB-H8.13 (antibody, V domains shown) VH: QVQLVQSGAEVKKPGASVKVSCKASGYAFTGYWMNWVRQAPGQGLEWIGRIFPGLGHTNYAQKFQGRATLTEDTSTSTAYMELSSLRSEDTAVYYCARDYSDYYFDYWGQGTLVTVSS VL: DIQMTQSPSSLSASVGDRVTITCRGSQDINTYLNWYQQKPGKAPKLLIYYTSRLHSGVPSRFSGSGSGTDYTLTISSLQPEDFATYYCQGGNTLPWTFGQGTKLEIK    1.55
S7AB-H8.7 (antibody, V domains shown) VH: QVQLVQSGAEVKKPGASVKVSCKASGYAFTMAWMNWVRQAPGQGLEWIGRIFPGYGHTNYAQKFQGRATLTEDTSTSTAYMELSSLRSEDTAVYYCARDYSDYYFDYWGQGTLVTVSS VL: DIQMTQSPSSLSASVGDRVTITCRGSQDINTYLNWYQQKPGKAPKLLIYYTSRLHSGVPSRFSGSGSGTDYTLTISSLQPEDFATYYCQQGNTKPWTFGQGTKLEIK    -0.21

Next binder, please.
Req: Reported log10 Kd, binder S7AB-H8.24 (antibody, V domains shown) VH: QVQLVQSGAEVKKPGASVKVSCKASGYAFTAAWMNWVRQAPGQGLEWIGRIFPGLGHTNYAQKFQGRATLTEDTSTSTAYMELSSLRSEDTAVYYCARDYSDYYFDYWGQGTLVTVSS VL: DIQMTQSPSSLSASVGDRVTITCRASEDINTYLNWYQQKPGKAPKLLIYYTSRLHSGVPSRFSGSGSGTDYTLTISSLQPEDFATYYCQQGGTLPWTFGQGTKLEIK : ____
Resp: -1.43
